Just for reference, paper PMC11796312 is where these values come from.

measurement-description: Cell viability, PrestoBlue (immunotoxicity)
Assay type: cell-based
experimental-setup: mouse; BV-2, 100 µM, 24 h, vs DMSO; read-out: viability, immuntoxicity X [%]
property-label: viability at 24 h, 100 µM (%)
Give bare numbers, in %.

query: May I ask what viability at 24 h, 100 µM has been recorded for O[C@H](CNCC1CC1)[C@H](Cc1ccccc1)NC1c2ccccc2-c2ccccc21 ?
result: 1.3

---

measurement-description: Pharmacokinetic study after i.p. administration
Type: in vivo
experimental-setup: ICR-CD1, mouse, plasma, ip, 10 mg/kg, mice, 10 mg/kg i.p., plasma; read-out: Vz/F
property-label: Vd/F (L/kg)
Numbers only, in L/kg.

query: May I ask what Vd/F has been recorded for O[C@H](CNCC1CC1)[C@H](Cc1ccccc1)NC1c2ccccc2-c2ccccc21 [Compound 6] ?
result: 40.9

---

measurement-description: Pharmacokinetic study after i.g. administration
Format: in vivo
experimental-setup: ICR-CD1, mouse, brain and plasma, po, 10 mg/kg, mice, 10 mg/kg i.g.; read-out: Kp (AUCbrain/AUCplasma), brain-to-plasma ratio
property-label: Kp
Give bare numbers.

query: May I ask what Kp has been recorded for O[C@H](CNCC1CC1)[C@H](Cc1ccccc1)NC1c2ccccc2-c2ccccc21 ?
result: 1.98

---

measurement-description: Pharmacokinetic study after i.p. administration
Format: in vivo
experimental-setup: ICR-CD1, mouse, brain/plasma, ip, 10 mg/kg, mice, 10 mg/kg i.p.; read-out: Kp (AUCbrain/AUCplasma), brain-to-plasma ratio
property-label: Kp

query: May I ask what Kp has been recorded for O[C@H](CNCC1CC1)[C@H](Cc1ccccc1)NC1c2ccccc2-c2ccccc21 ?
result: 11.1

---

measurement-description: Cell viability, PrestoBlue (immunotoxicity)
Format: cell-based
experimental-setup: mouse; BV-2, 50 µM, 24 h; read-out: viability, immuntoxicity X [%]
property-label: viability at 24 h, 50 µM (%)
Answers are plain numbers, in %.

query: May I ask what viability at 24 h, 50 µM has been recorded for O[C@H](CNCC1CC1)[C@H](Cc1ccccc1)NC1c2ccccc2-c2ccccc21 [Compound 6] ?
result: 2

---

Test system: Mouse Hippocampal Neuronal (HT-22)
measurement-description: Cell viability, PrestoBlue (neurotoxicity)
Format: cell-based
experimental-setup: Mus musculus, HT-22, 24 h; read-out: NEUROTOXICITY IC50
property-label: pIC50
Give bare numbers, as −log10 of the molar value.

query: May I ask what pIC50 has been recorded for O[C@H](CNCC1CC1)[C@H](Cc1ccccc1)NC1c2ccccc2-c2ccccc21 ?
result: 4.64

---

study-target: UniProtKB P31648
measurement-description: [3H]GABA uptake assay, mGAT1
Assay type: cell-based
property-label: pIC50
One number for each entry, as −log10 of the molar value.

query: Give pIC50 (UniProtKB P31648) of the following molecule: O[C@H](CNCC1CC1)[C@H](Cc1ccccc1)NC1c2ccccc2-c2ccccc21
result: 4.96

---

measurement-description: Pharmacokinetic study after i.g. administration
Format: in vivo
experimental-setup: ICR-CD1, mouse, plasma, po, 10 mg/kg, mice, 10 mg/kg i.g.
property-label: Cmax (ng/mL)
Numbers only, in ng/mL.

query: May I ask what Cmax has been recorded for O[C@H](CNCC1CC1)[C@H](Cc1ccccc1)NC1c2ccccc2-c2ccccc21 [Compound 6] ?
result: 120

---

Exercise: for every item that follows, state its recorded IC50.
study-target: human butyrylcholinesterase (hBuChE) (Homo sapiens)
Construct: from human plasma was from Vivonics (Bedford, MA, USA)
Sequence (P06276 29-602): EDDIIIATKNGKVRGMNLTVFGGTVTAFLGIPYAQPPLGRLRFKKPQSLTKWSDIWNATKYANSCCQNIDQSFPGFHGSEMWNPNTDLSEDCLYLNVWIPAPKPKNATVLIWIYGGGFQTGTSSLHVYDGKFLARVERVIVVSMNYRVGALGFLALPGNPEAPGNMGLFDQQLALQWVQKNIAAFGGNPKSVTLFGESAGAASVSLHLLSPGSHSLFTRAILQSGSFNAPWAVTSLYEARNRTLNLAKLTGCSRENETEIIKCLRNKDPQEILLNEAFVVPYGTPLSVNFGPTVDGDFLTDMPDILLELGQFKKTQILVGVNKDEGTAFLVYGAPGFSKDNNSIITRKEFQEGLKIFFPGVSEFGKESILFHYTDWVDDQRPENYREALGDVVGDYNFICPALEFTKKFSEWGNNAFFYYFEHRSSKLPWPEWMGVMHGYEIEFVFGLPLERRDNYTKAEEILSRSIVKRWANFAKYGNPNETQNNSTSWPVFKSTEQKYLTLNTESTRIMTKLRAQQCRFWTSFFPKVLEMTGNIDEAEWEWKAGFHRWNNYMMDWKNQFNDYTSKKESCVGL
measurement-description: biochemical
experimental-setup: means±SEM of at least three experiments
Give bare numbers, in nM.

Below: 2 compounds and their reported IC50.
O[C@H](CNCc1ccccc1)[C@H](Cc1ccccc1)NC1c2ccccc2-c2ccccc21 :: 200
COc1ccccc1CNC[C@H](O)[C@H](Cc1ccccc1)NC1c2ccccc2-c2ccccc21 :: 270

Lab note: next compound to report on.
query: Give IC50 (human butyrylcholinesterase (hBuChE) (Homo sapiens)) of the following compound: O[C@H](CNCC1CC1)[C@H](Cc1ccccc1)NC1c2ccccc2-c2ccccc21
result: 210
